- TEST_DESCRIPTION: Kinetic solubility
- Type: physicochemical
// solubility kinetic lookup, one value per entry
Form entry: value (µM) — number only.

Example entries begin here.
{"COMPOUND": "FC(F)(F)c1cc2c(N[C@H]3c4ccccc4CC[C@@H]3N3C[C@H]4COC[C@H]4C3)ncnc2[nH]1", "REPORTED_METRIC": "solubility kinetic", "MEASURED_VALUE": 1.56}
{"COMPOUND": "FC(F)(F)c1cc2c(N[C@@H]3c4ccccc4CC[C@@H]3N3CCOCC3)ncnc2[nH]1", "REPORTED_METRIC": "solubility kinetic", "MEASURED_VALUE": 14.5}

Please report the recorded solubility kinetic for FC(F)(F)c1cc2c(N[C@@H]3c4ccccc4CC[C@H]3N3C[C@H]4COC[C@H]4C3)ncnc2[nH]1 (single isomer, unassigned) . 1.56

---

// Highest safe dose (cytotoxicity; no FO; safe means DAPI+ <20%) lookup, one value per entry
- Tested on: HeLa MKYP cells
- TEST_DESCRIPTION: Cell death measured by DAPI staining, with 1 μM FCCP/oligomycin or no toxin (no FO)
- Assay type: cell-based
- CONDITIONS_USED: no FO; safe means DAPI+ <20%
Include the unit right after the number.

Example entries begin here.
{"COMPOUND": "CC(=O)N1CCN(C2COc3ccccc3C2Nc2ncnc3[nH]c(C4CC4)cc23)CC1 (racemic)", "MEASURED_VALUE": "25.0 µM"}
{"COMPOUND": "FC(F)(F)c1cc2c(N[C@H]3c4ccccc4OC[C@@H]3N3CCOCC3)ncnc2[nH]1 [EP-0040078]", "MEASURED_VALUE": "25.0 µM"}
{"COMPOUND": "Fc1ccc2c(c1)OC[C@H](N1C[C@H]3COC[C@@H]3C1)[C@H]2Nc1ncnc2[nH]c(C(F)(F)F)cc12 (single isomer, unassigned) [EP-0040748]", "MEASURED_VALUE": "25.0 µM"}
{"COMPOUND": "FC(F)(F)c1cc2c(N[C@H]3c4ccccc4CC[C@H]3C3CCOCC3)ncnc2[nH]1", "MEASURED_VALUE": "25.0 µM"}
{"COMPOUND": "CC(C)(O)C1CN([C@H]2COc3ccccc3[C@@H]2Nc2ncnc3[nH]c(C(F)(F)F)cc23)C1 (single isomer, unassigned)", "MEASURED_VALUE": "25.0 µM"}

Please report the recorded Highest safe dose (cytotoxicity; no FO; safe means DAPI+ <20%) for FC(F)(F)c1cc2c(N[C@@H]3c4ccccc4CC[C@@H]3N3CCOCC3)ncnc2[nH]1 . 16.7 µM

Follow-up item: COC1CN([C@H]2CCc3ccccc3[C@@H]2Nc2ncnc3[nH]c(C(F)(F)F)cc23)C1 [EP-0040857] 25.0 µM

---

// E102 max mitophagy, fold over DMSO lookup, one value per entry
- System: HeLa MKYP cells
- TEST_DESCRIPTION: Human mitophagy assay (HeLa mKeima assay, FACS)
- Format: cell-based
- CONDITIONS_USED: 1 μM FCCP/oligomycin
- Procedure: Briefly, HeLa MKYP cells were plated at 10,000 cells/well in 96 well plates along with compounds at various concentrations. Following 16 hrs of incubation, cells were treated with 1 uM FCCP/oligomycin for 6 hours, then analyzed via FACS for the presence of mitochondria in lysosomes (as determined by an emissions spectrum shift from the pH-sensitive mtKeima tag). […]
Form entry: value (fold over DMSO) — number only.

What reported E102 max mitophagy, fold over DMSO corresponds to FC(F)(F)c1cc2c(N[C@H]3c4ccccc4CC[C@@H]3N3C[C@H]4COC[C@H]4C3)ncnc2[nH]1 on HeLa MKYP cells? 5.44

Follow-up item: FC(F)(F)c1cc2c(N[C@@H]3c4ccccc4CC[C@H]3N3CCOCC3)ncnc2[nH]1 (single isomer, unassigned) [EP-0038099] 7.78

Follow-up item: FC(F)(F)c1cc2c(NC3CCCc4ccccc43)ncnc2[nH]1 (single isomer, unassigned) 4.43

---

// Highest safe dose (μM) (mitotox or cytotox) lookup, one value per entry
- TEST_DESCRIPTION: Mitotoxicity / Mitotox safety margin (therapeutic window)
- Type: cell-based
- CONDITIONS_USED: mitotox or cytotox
Form entry: value (µM) — number only.

{"COMPOUND": "C[C@@H]1CN([C@H]2CCc3ccccc3[C@@H]2Nc2ncnc3[nH]c(C(F)(F)F)cc23)CCO1 (single isomer, unassigned)", "UOM": "µM", "MEASURED_VALUE": 3.7}
{"COMPOUND": "Fc1ccc2c(c1)CC[C@H](N1C[C@H]3COC[C@@H]3C1)[C@H]2Nc1ncnc2[nH]c(C(F)(F)F)cc12", "UOM": "µM", "MEASURED_VALUE": 9.1}
{"COMPOUND": "c1ccc2c(c1)CC[C@H](C1CCOCC1)[C@H]2Nc1ncnc2[nH]c(C3CC3)cc12 (single isomer, unassigned) [EP-0040582]", "UOM": "µM", "MEASURED_VALUE": 5.1}
{"COMPOUND": "COC1CN([C@H]2COc3ccccc3[C@@H]2Nc2ncnc3[nH]c(C4CC4)cc23)C1 [EP-0040847]", "UOM": "µM", "MEASURED_VALUE": 25.0}
{"COMPOUND": "C[C@@H]1CN([C@@H]2COc3ccccc3[C@H]2Nc2ncnc3[nH]c(C(F)(F)F)cc23)C[C@H](C)O1", "UOM": "µM", "MEASURED_VALUE": 2.3}

Could you now consider this next compound?
Please report the recorded Highest safe dose (μM) (mitotox or cytotox) for c1ccc2c(c1)CC[C@H](N1CCOCC1)[C@H]2Nc1ncnc2[nH]c(C3CC3)cc12 (single isomer, unassigned) [EP-0040108] . 18.3

---

// Mito-Safety Index (highest safe dose/EC50) lookup, one value per entry
- TEST_DESCRIPTION: Mitotoxicity / Mitotox safety margin (therapeutic window)
- Format: cell-based
- CONDITIONS_USED: highest safe dose/EC50
Answer with a number only.

Example entries begin here.
{"COMPOUND": "COC[C@H]1CCN([C@H]2COc3ccccc3[C@@H]2Nc2ncnc3[nH]c(C(F)(F)F)cc23)C1 (single isomer, unassigned)", "MEASURED_VALUE": 30.68}
{"COMPOUND": "COC[C@@H]1CCN(C2COc3ccccc3C2Nc2ncnc3[nH]c(C4CC4)cc23)C1 (single isomer, unassigned)", "MEASURED_VALUE": 38.63}
{"COMPOUND": "Fc1ccc2c(c1)OC[C@H](N1C[C@H]3COC[C@H]3C1)[C@H]2Nc1ncnc2[nH]c(C3CC3)cc12 (single isomer, unassigned)", "MEASURED_VALUE": 84.78}
{"COMPOUND": "Fc1ccc2c(c1)CC[C@H](N1CCOCC1)[C@H]2Nc1ncnc2[nH]c(C3CC3)cc12 (single isomer, unassigned) [EP-0039746]", "MEASURED_VALUE": 9.48}
{"COMPOUND": "FC(F)(F)c1cc2c(NC3c4ccccc4OCC3N3C[C@H]4COC[C@@H]4C3)ncnc2[nH]1 (stereo partly drawn)", "MEASURED_VALUE": 28.90}

Please report the recorded Mito-Safety Index (highest safe dose/EC50) for Fc1ccc2c(c1)OC[C@H](N1C[C@H]3COC[C@@H]3C1)[C@H]2Nc1ncnc2[nH]c(C(F)(F)F)cc12 (single isomer, unassigned) . 46.81

Follow-up item: C[C@@H]1CN([C@H]2CCc3ccccc3[C@@H]2Nc2ncnc3[nH]c(C4CC4)cc23)CCO1 (single isomer, unassigned) 82.87

---

- System: HeLa MKYP cells
- TEST_DESCRIPTION: Human mitophagy assay (HeLa mKeima assay, FACS)
- Assay type: cell-based
- CONDITIONS_USED: Homo sapiens, HeLa, text statement referring to Tables 2A and 2B, FIG. 1A-F; read-out: EC50
REPORTED_METRIC: EC50

Please report the recorded EC50 for FC(F)(F)c1cc2c(N[C@H]3c4ccccc4CC[C@@H]3N3CCOCC3)ncnc2[nH]1 (single isomer, unassigned) . < 300 nM

---

- System: HeLa MKYP cells
- TEST_DESCRIPTION: Cell death measured by DAPI staining, with 1 μM FCCP/oligomycin or no toxin (no FO)
- Format: cell-based
- CONDITIONS_USED: with 1 μM FO
REPORTED_METRIC: Max % death with 1 μM FO (%)
Form entry: value (%) — number only.

Example entries begin here.
{"COMPOUND": "C[C@@H]1CN([C@@H]2COc3cc(F)ccc3[C@H]2Nc2ncnc3[nH]c(C(F)(F)F)cc23)CCO1", "Max % death with 1 μM FO (%)": 16.2}
{"COMPOUND": "Fc1ccc2c(c1)CC[C@@H](N1C[C@@H]3COC[C@H]3C1)[C@@H]2Nc1ncnc2[nH]c(C(F)(F)F)cc12", "Max % death with 1 μM FO (%)": 14.9}
{"COMPOUND": "COC[C@@H]1CCN([C@H]2COc3ccccc3[C@@H]2Nc2ncnc3[nH]c(C(F)(F)F)cc23)C1 (single isomer, unassigned) [EP-0041071]", "Max % death with 1 μM FO (%)": 12.6}
{"COMPOUND": "CN(CC1CCOCC1)[C@H]1CCc2ccccc2[C@@H]1Nc1ncnc2[nH]c(C(F)(F)F)cc12", "Max % death with 1 μM FO (%)": 61.0}
{"COMPOUND": "C[C@@H]1CN([C@H]2CCc3ccccc3[C@@H]2Nc2ncnc3[nH]c(C(F)(F)F)cc23)C[C@H](C)O1 (single isomer, unassigned)", "Max % death with 1 μM FO (%)": 14.8}
{"COMPOUND": "c1ccc2c(c1)OC[C@@H](C1CCOCC1)[C@H]2Nc1ncnc2[nH]c(C3CC3)cc12", "Max % death with 1 μM FO (%)": 8.3}
{"COMPOUND": "FC1COCCC1[C@H]1COc2ccccc2[C@@H]1Nc1ncnc2[nH]c(C(F)(F)F)cc12 (single isomer, unassigned) [EP-0041322]", "Max % death with 1 μM FO (%)": 11.0}
{"COMPOUND": "C[C@H]1CN([C@@H]2CCc3ccccc3[C@H]2Nc2ncnc3[nH]c(C4CC4)cc23)CCO1 (single isomer, unassigned)", "Max % death with 1 μM FO (%)": 26.7}
{"COMPOUND": "c1ccc2c(c1)OCC(N1CC3CCOC3C1)C2Nc1ncnc2[nH]c(C3CC3)cc12 (single isomer, unassigned) [EP-0041668]", "Max % death with 1 μM FO (%)": 8.0}
{"COMPOUND": "C[C@@H]1CN([C@@H]2COc3cc(F)ccc3[C@H]2Nc2ncnc3[nH]c(C4CC4)cc23)CCO1", "Max % death with 1 μM FO (%)": 7.3}

Please report the recorded Max % death with 1 μM FO for c1ccc2c(c1)CC[C@H](N1CCOCC1)[C@H]2Nc1ncnc2[nH]c(C3CC3)cc12 (single isomer, unassigned) [EP-0040108] . 19.1

Follow-up item: FC(F)(F)c1cc2c(N[C@H]3c4ccccc4OC[C@@H]3C3CCOCC3)ncnc2[nH]1 [EP-0040583] 17.8

Follow-up item: C[C@H]1CN([C@@H]2COc3cc(F)ccc3[C@H]2Nc2ncnc3[nH]c(C4CC4)cc23)CCO1 9.6

Follow-up item: c1ccc2c(c1)CC[C@H](C1CCOCC1)[C@H]2Nc1ncnc2[nH]c(C3CC3)cc12 [EP-0040726] 20.5

These data points were gathered from patent US20240018146A1.
